Origin of the recorded values: patent US20110124888A1

# RUN DESCRIPTION: Pharmacokinetics test in mice (plasma)
# Assay type: in vivo, ICR mice
# CONDITION LABEL: ICR, mouse, plasma; mice, 2.5 mg/kg, po
Measured Cmax, listed per entry.
Only the number, expressed in ng/mL, is required.

// query What value of Cmax has been reported for the following compound? CNc1ccc(C=Cc2cc3cc(OC)ccc3o2)cc1 [Compound 17]
// result 96.5

Next:
// query Recorded Cmax of COc1ccc2cc(C=Cc3ccc(N(C)C)cc3)oc2c1 [Compound 9] , please.
// result 172

* * *

# RUN DESCRIPTION: Passage test through the blood-brain barrier in rats (brain tissue)
# Type: in vivo, SD rats
# CONDITION LABEL: SD, rat, brain, 1.25 mg/kg, iv, read-out: AUCBrain/AUC Plasma
Kp values, listed per item
No unit in the answer, please; the number alone is enough.

// query # Kp lookup, item CNc1ccc(C=Cc2cc3cc(OC)ccc3o2)cc1 [Compound 17]
// result 7.6

// query Item COc1ccc2cc(C=Cc3ccc(N(C)C)cc3)oc2c1 [Compound 9] has what recorded Kp?
// result 11

* * *

# SYSTEM UNDER TEST: beta-amyloid 42 (Aβ42) (Homo sapiens)
# Construct: Beta-amyloid 42 (Aβ42) was dissolved in dimethylsulfoxide (DMSO)
# Sequence (P05067 672-713 limits assumed): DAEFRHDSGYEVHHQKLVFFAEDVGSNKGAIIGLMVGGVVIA
# RUN DESCRIPTION: Inhibitory effect on the formation of beta-amyloid fibrils in vitro (ThT fluorescence assay)
# Format: biochemical
# CONDITION LABEL: In vitro ThT analysis (Aβ42: 25 μM); experiment of Table 6
Where a name gives a salt, the structure may show the parent alone.
In this scheme, each record receives a class according to its IC50; the ranges are lowest (below 1000 nM), middle (1000 nM to below 2000 nM), highest (2000 nM or more)

Past entries and their recorded results:
// query Class for CNc1ccc(C=Cc2cc3cc(C)ccc3o2)cc1 [Compound 40, trifluoroacetate] ?
// result highest

// query Assign a category based on measured IC50 for `COc1ccc(C=Cc2cc3cc(OC)c(OC)cc3o2)cc1` and give only the class name.
// result lowest

// query Into which bin does this molecule go? `CNc1ccc(C=Cc2cc3cc(OCCOCCF)ccc3o2)cc1`
// result middle

New cases:
// query Exercise: read the entry `CNc1ccc(C=Cc2cc3cc(I)ccc3o2)cc1` and state which class it falls under.
// result middle

// query Lab note: sort COc1ccc2cc(/C=C/c3ccc(N(C)C)cc3)oc2c1 [hydrochloride of Ex. 9] into the matching IC50 band.
// result middle

// query Record `CNc1ccc(C=Cc2cc3cc(Cl)ccc3o2)cc1` — which class?
// result highest

// query Category of CNc1ccc(/C=C/c2cc3cc(OC)ccc3o2)cc1 [hydrochloride of Ex. 17] :
// result lowest

// query Would you mind sorting `CNc1ccc(C=Cc2cc3cc(I)ccc3o2)cc1OC` into the appropriate category?
// result middle

* * *

# maps each entry to its AUC
# RUN DESCRIPTION: Pharmacokinetics test in rats (plasma)
# Assay type: in vivo, SD rats
# CONDITION LABEL: SD, rat, plasma, 1.25 mg/kg, iv, n = 3
State the answer as a number, implicitly in ng·h/mL.

// query Can you share its AUC? I mean this compound: `COc1ccc2cc(C=Cc3ccc(N(C)C)cc3)oc2c1`
// result 1640

Proceeding to the next compound to report its AUC.
// query Please give the measured AUC for this compound: `CNc1ccc(C=Cc2cc3cc(OC)ccc3o2)cc1`
// result 1140
